The values you see were collected from the supplement of paper PMC11634586.

# System: NCI-H1688
# assay procedure: inhibition of cell viability relative to untreated control (fraction); higher = stronger growth inhibition, active = 0.5 or more
# test parameters: 30 µM; 24 h
Labels: active, inactive

OC[C@H]1O[C@H](O[C@H]2[C@H](O)[C@@H](O)[C@H](O)O[C@@H]2CO)[C@H](O)[C@@H](O)[C@@H]1O :: inactive
C=C(C)[C@@H]1CC[C@]2(CO)CC[C@]3(C)[C@H](CC[C@@H]4[C@@]5(C)CC[C@H](O)C(C)(C)[C@@H]5CC[C@]43C)[C@@H]12 :: active
COc1ccc(-c2cc(=O)c3c(OC)c(OC)c(OC)c(OC)c3o2)cc1OC :: inactive
O=C(O)c1cccnc1 :: inactive
CC[C@H]1OC(=O)[C@H](C)[C@@H](O[C@H]2C[C@@](C)(OC)[C@@H](O)[C@H](C)O2)[C@H](C)[C@@H](O[C@@H]2O[C@H](C)C[C@H](N(C)C)[C@H]2O)[C@](C)(O)C[C@@H](C)CN(C)[C@H](C)[C@@H](O)[C@]1(C)O [Azithromycin dihydrate] :: inactive
CCOC(=O)C1=C[C@]2(CC)CCCN3CCc4c(n1c1ccccc41)[C@@H]32 :: inactive
